A collection of molecules and their measured EC50
Tested on: HSV-2 virus (MS strain)
Assay: HSV-2 Cellomics Assay (immunofluorescence of HSV protein gD)
Type: cell-based
Details: Human alphaherpesvirus 2; HSV-2 (MS strain, MOI 0.06) infected ARPE-19 cells, assay medium containing 2% FBS, 16 hours; read-out: EC50-HSV2-FBS
Experimental: Compounds were tested for their ability to inhibit HSV-2 replication by monitoring the expression of the HSV protein gD using a high-throughput immunofluorescence-based assay. […] ARPE-19 cells (ATCC cat #CRL-2302) were maintained DMEM/F-12 Glutamax medium (Thermo Fisher Scientific cat #10565018) supplemented with 10% FBS (Corning cat #35-011-CV) and 1% Penicillin-Streptomycin (cat #30-002-CI). […] Cells were resuspended in assay medium (DMEM/F-12 Glutamax, 2% FBS, 1% Penicillin-Streptomycin) and counted. […]
Give just the numeric value; nM need not be written.

INSERT INTO measurements (molecule, numeric_result) VALUES
  ('COCC[S@@](=N)(=O)c1cc2c(cc1F)CCN2C(=O)[C@@H]1Cc2ccc(-c3ccccn3)cc2C1 [Example 14]', 25);

Consider the molecule N=[S@@](=O)(c1cc2c(cc1F)CCN2C(=O)[C@@H]1Cc2ccc(-c3ccccn3)cc2C1)C1CC1 [Example 21] . State its measured EC50.
98

Consider the molecule CCNS(=O)(=O)c1cc2c(cc1F)CCN2C(=O)[C@H]1Cc2cc(-c3ccccn3)ccc2O1 [Example 31] . State its measured EC50.
10

Consider the molecule CC[S@@](=N)(=O)c1cc2c(cc1F)C[C@@H](C)N2C(=O)[C@@H]1Cc2ccc(-c3ccccn3)cc2C1 [Example 26] . State its measured EC50.
30

Consider the molecule CCC[S@@](=N)(=O)c1cc2c(cc1F)CCN2C(=O)[C@H]1Cc2cc(-c3ccccn3)ccc2O1 [Example 12] . State its measured EC50.
35

Consider the molecule CCC[S@](=N)(=O)c1cc2c(cc1F)CCN2C(=O)[C@H]1Cc2cc(-c3ccccn3)ccc2O1 [Example 11] . State its measured EC50.
124

Consider the molecule COCC[S@](=N)(=O)c1cc2c(cc1F)CCN2C(=O)[C@@H]1Cc2ccc(-c3ccccn3)cc2C1 [Example 15] . State its measured EC50.
42

Consider the molecule CCC[S@](=N)(=O)c1cc2c(cc1F)CCN2C(=O)[C@@H]1Cc2ccc(-c3ccccn3)cc2C1 [Example 9] . State its measured EC50.
52

Consider the molecule CN=[S@](C)(=O)c1cc2c(cc1F)CCN2C(=O)[C@@H]1Cc2ccc(-c3ccccn3)cc2C1 [Example 23] . State its measured EC50.
155

Consider the molecule COCC[S@](=N)(=O)c1cc2c(cc1F)CCN2C(=O)[C@H]1Cc2cc(-c3ccccn3)ccc2O1 [Example 18] . State its measured EC50.
92

These entries and their values trace back to patent US20250171413A1.
